- Tested on: EKVX NSCLC
- Test Name: NCI-60 one-dose screen, 48 h (100 = growth as untreated, 0 = no growth, -100 = all killed)
- Particulars: 10 µM unless noted
About 83,000 compounds went through this panel and 20% of them were active in at least one assay; those are over-represented in the sample as a whole.
Please enter Criterion met where growth is greater than or equal to 70%, and Criterion not met where it is lower.

(Q) Can O=C1C2CC=CCC2C(=O)N1CNc1ccc(Cl)cc1 (centres undefined) be said to have growth at or above 70%?
(A) Criterion met

(Q) Also check `Cc1cc(-c2nc3ccccc3s2)ccc1NC(=O)COc1ccc(Cl)cc1`
(A) Criterion met

(Q) Also check `COc1cccc(-c2cn3c(ccc4ccccc43)n2)c1`
(A) Criterion not met

(Q) Also check `CC(=O)C1=C(O)C=C2Oc3c(C(=O)/C=C/c4ccccc4)c(O)c(C)c(O)c3[C@]2(C)C1=O`
(A) Criterion not met

(Q) Also check ClC1=C2NC=NC2n2c(nnc2-c2ccc(Cl)cc2)N1 (centres undefined)
(A) Criterion met

(Q) Also check `CC/C=C\C[C@H](O)C/C=C1/C(=O)C=C[C@@H]1C/C=C\CCCC(=O)NC(C)C`
(A) Criterion not met

(Q) Also check `C/C(=C(/c1ccc(O)cc1)c1ccc(Cl)cc1)c1ccccc1`
(A) Criterion not met

(Q) Also check `COc1cc(NCCCCCN=C(N)NC(N)=NC(C)C)c2ncccc2c1`
(A) Criterion not met

(Q) Also check `O=C1/C(=C\c2cn(C(=O)c3ccc(Cl)cc3)c3ccccc23)c2ccccc2N1c1c(Cl)cccc1Cl`
(A) Criterion met

(Q) Also check `CN(C)CCOc1ccc(-c2nc3ccc(-c4nc5ccc(N6CCN(C)CC6)cc5[nH]4)cc3[nH]2)cc1`
(A) Criterion met

(Q) Also check CC1CN(Cc2ccco2)C(=S)N(c2ccccc2)C1=O (centres undefined)
(A) Criterion met

(Q) Also check `O=c1[nH]c(-c2ccccn2)nc2sc3c(c12)CCCCC3`
(A) Criterion not met

(Q) Also check `CCOC(=O)c1cnc2ccc(OC)cc2c1Nc1cccc(S(=O)(=O)NC)c1`
(A) Criterion met

----------
- Tested on: OVCAR-3 ovarian
- Test Name: NCI-60 one-dose screen, 48 h (100 = growth as untreated, 0 = no growth, -100 = all killed)
- Particulars: 10 µM unless noted
About 83,000 compounds went through this panel and 20% of them were active in at least one assay; those are over-represented in the sample as a whole. The source made the active and inactive calls. Rule for the calls: active = growth percent below 10; inactive = the rest.
Readout Kind: growth

(Q) I would be grateful if you could share the reported growth for CCOC(=O)C12CCCC1=CC(=O)CC2 (stereo not drawn) .
(A) 116% (inactive)

(Q) Also check `O=C(O)c1cccnc1Br`
(A) 104% (inactive)

(Q) Also check `COc1ccc(-n2cc(-c3ccccc3)c3c(SCC(=O)N/N=C/c4ccc([N+](=O)[O-])cc4)ncnc32)cc1`
(A) 105% (inactive)

(Q) Also check O=C(O)C(O)C(O)C(=O)O.[NH-]C1CCCCC1[NH-].[Pt+2] (stereo not drawn)
(A) 107% (inactive)

(Q) Also check CCCCCCCCCCCCNC(=O)[C@H]1CSC(c2ccc(OC)c(F)c2)N1 (stereo partly drawn)
(A) -91.9% (active)

(Q) Also check `O=C(NCc1cccc(C(F)(F)F)c1)[C@H](CCC(=O)N1CCN(C2CCCCC2)CC1)N1C(=O)[C@@H](N2C(=O)OC[C@@H]2c2ccccc2)[C@H]1/C(Cl)=C/c1ccccc1`
(A) 47.6% (inactive)

(Q) Also check `COc1ccc(-c2nc(Nc3cc(C)[nH]n3)c3ccccc3n2)cc1`
(A) 52.2% (inactive)

(Q) Also check `Cn1cc(-c2nc(-c3c[nH]c4ccccc34)cs2)c2cccnc21`
(A) 7.04% (active)

(Q) Also check `NS(=O)(=O)c1ccc(Nc2nc3n[nH]c(Nc4ccccc4)c3c(=O)[nH]2)cc1`
(A) 106% (inactive)

(Q) Also check `COc1cc2c(cc1O)CCc1cc(O)cc(OC)c1-2`
(A) 95.6% (inactive)

(Q) Also check `COc1cc(C#N)cc(OC)c1OCCN(CCOc1c(OC)cc(C#N)cc1OC)S(=O)(=O)c1ccc(C)cc1`
(A) 118% (inactive)

(Q) Also check N=S(=O)(NC(=O)c1ccc(Cl)cc1Cl)c1ccc(Br)s1 (stereo not drawn)
(A) 105% (inactive)

(Q) Also check `N#Cc1ccc(NC(=O)Nc2ccc(Cc3ccc(NC(=O)Nc4ccc(C#N)cc4)cc3)cc2)cc1`
(A) 18.8% (inactive)

(Q) Also check `O=[N+]([O-])c1cccc(-c2nc3sccn3c2-c2ccnc(NCCNS(=O)(=O)c3ccc(C(F)(F)F)cc3)n2)c1`
(A) 40.5% (inactive)

(Q) Also check CCCCCCCCCCCCCCCC(=O)OCC1OC(n2cnc3c(=S)nc(N)[nH]c32)C(OC(=O)CCCCCCCCCCCCCCC)C1OC(=O)CCCCCCCCCCCCCCC (stereo not drawn)
(A) 50% (inactive)

(Q) Also check CCOC(=O)C(C#N)C1CCCCC1 (stereo not drawn)
(A) 96.9% (inactive)

(Q) Also check `COc1ccc(CCN2CC=Cn3c2nc2ccccc2c3=O)cc1`
(A) -1.6% (active)

(Q) Also check CCN(CC)C12CCCCC1(C)C(C#N)(C#N)C(C#N)=C(N)O2 (stereo not drawn)
(A) 98.3% (inactive)

Cited source: PubChem BioAssay (NCI)
